# System: HUVEC/MSC spheroids viability
# Protocol Description: Human HUVEC/MSC cell line growth inhibition [KRAS2];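 also: percent of DMSO vehicle control luminescence so 100% = untreated viability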
# Applied Conditions: second compound 0.0316 µM; first compound 10 µM; active compounds read low
Readout Name: viability, T/C

| Compound | viability, T/C |
| --- | --- |
| CCNC(=O)CC1N=C(c2ccc(Cl)cc2)c2cc(OC)ccc2-n2c(C)nnc21 (stereo not drawn) + CC1OCC2(CCN(c3cnc(Sc4ccnc(N)c4Cl)c(N)n3)CC2)C1N | 89.4% |

Parameter requested: viability, T/C. Apply to each item below.
1. COc1cc2nccc(Oc3ccc(NC(=O)C4(C(=O)Nc5ccc(F)cc5)CC4)cc3)c2cc1OC + COc1cc2nc(C)nc(NC(C)c3cc(N)cc(C(F)(F)F)c3)c2cc1OC1CCOC1
2. CC1OCC2(CCN(c3cnc(Sc4ccnc(N)c4Cl)c(N)n3)CC2)C1N (stereo not drawn) + C=CC(=O)N1CCN(c2nc(=O)n(-c3c(C)ccnc3C(C)C)c3nc(-c4c(O)cccc4F)c(F)cc23)C(C)C1

32.5%
70.5%

Recorded values, source PubChem BioAssay AID2060912.
